Taken from ChEMBL document CHEMBL1177650.

test: Selectivity index, CC50 for human THP1 cells to IC50 for Leishmania chagasi MHOM/BR/74/PP75 amastigotes; type: functional, THP-1
Items are presented alongside their recorded Selectivity Index.

Reference set, count: 4
>  <compound>
COc1cccc([C@@H]2C[C@H](O)Cc3ccccc3N2)c1 (relative stereo)

>  <Selectivity Index>
>3

$$$$
>  <compound>
Fc1ccc([C@@H]2C[C@@H]3Cc4ccccc4N2O3)cc1 (relative stereo)

>  <Selectivity Index>
>1

$$$$
>  <compound>
Cc1ccc2c(c1)C[C@H]1C[C@@H](c3ccccc3Cl)N2O1 (relative stereo)

>  <Selectivity Index>
>0.66

$$$$
>  <compound>
O[C@@H]1Cc2cc(OC(F)(F)F)ccc2N[C@H](c2ccccc2)C1 (relative stereo)

>  <Selectivity Index>
>1

$$$$

Consider now this further compound.
Quick one: give measured Selectivity Index for Clc1ccc2c(c1)C[C@H]1C[C@@H](c3ccc(Br)cc3)N2O1 (relative stereo)
>2

* * *

tested on: Trypanosoma cruzi; test: Antitrypanosomal activity against Trypanosoma cruzi 320I01 amastigotes infected in african green monkey Vero cells after 5 days by Giemsa staining; format: functional, organism-based; conditions: 320I01, Vero, 120 h
measure.name: IC90

Quick one: give measured IC90 for Fc1ccccc1[C@@H]1C[C@@H]2Cc3cc(Cl)ccc3N1O2 (relative stereo)
> 100 µM

Quick one: give measured IC90 for O[C@@H]1Cc2cc(F)ccc2N[C@H](c2ccc(Cl)cc2)C1 (relative stereo)
> 100 µM

Quick one: give measured IC90 for COc1cccc([C@@H]2C[C@H](O)Cc3ccccc3N2)c1 (relative stereo)
> 100 µM

* * *

assay: Cytotoxicity against human THP1 cells after 72 hrs by MTT assay; format: cell-based; details: THP-1 cells
Items are presented alongside their recorded CC90 at 72 h.

>  <compound>
Cc1cccc([C@@H]2C[C@H](O)Cc3ccccc3N2)c1 (relative stereo)

>  <CC90 at 72 h>
> 300 µM

$$$$
>  <compound>
COc1cccc([C@@H]2C[C@H](O)Cc3ccccc3N2)c1 (relative stereo)

>  <CC90 at 72 h>
> 300 µM

$$$$
>  <compound>
Cc1ccc2c(c1)C[C@@H](O)C[C@@H](c1ccccc1Cl)N2 (relative stereo)

>  <CC90 at 72 h>
> 300 µM

$$$$

Quick one: give measured CC90 at 72 h for O[C@@H]1Cc2cc(Cl)ccc2N[C@H](c2ccccc2Cl)C1 (relative stereo)
> 300 µM

Quick one: give measured CC90 at 72 h for O[C@@H]1Cc2ccccc2N[C@H](c2ccccc2)C1 (relative stereo)
> 300 µM

Quick one: give measured CC90 at 72 h for Clc1cccc(Cl)c1[C@@H]1C[C@@H]2Cc3ccccc3N1O2 (relative stereo)
> 300 µM

Quick one: give measured CC90 at 72 h for Fc1ccc2c(c1)C[C@H]1C[C@@H](c3ccccc3)N2O1 (relative stereo)
> 300 µM

Quick one: give measured CC90 at 72 h for O[C@@H]1Cc2cc(Cl)ccc2N[C@H](c2ccc(Br)cc2)C1 (relative stereo)
280 µM

Quick one: give measured CC90 at 72 h for O[C@@H]1Cc2cc(OC(F)(F)F)ccc2N[C@H](c2ccccc2)C1 (relative stereo)
> 300 µM

Quick one: give measured CC90 at 72 h for Clc1ccc2c(c1)C[C@H]1C[C@@H](c3ccc(Br)cc3)N2O1 (relative stereo)
> 287 µM

Quick one: give measured CC90 at 72 h for Fc1ccccc1[C@@H]1C[C@@H]2Cc3cc(Cl)ccc3N1O2 (relative stereo)
> 300 µM

Quick one: give measured CC90 at 72 h for O[C@@H]1Cc2cc(Cl)ccc2N[C@H](c2ccc(Cl)cc2)C1 (relative stereo)
> 300 µM

Quick one: give measured CC90 at 72 h for Cc1cccc([C@@H]2C[C@@H]3Cc4ccccc4N2O3)c1 (relative stereo)
> 300 µM

Quick one: give measured CC90 at 72 h for Clc1ccc([C@@H]2C[C@@H]3Cc4cc(Cl)ccc4N2O3)cc1 (relative stereo)
> 300 µM

* * *

system: Leishmania chagasi; test: Antileishmanial activity against Leishmania chagasi MHOM/BR/74/PP75 promastigotes after 72 hrs by haemocytometry; format: functional, organism-based; details: MHOM/BR/74/PP75, 72 h
Items are presented alongside their recorded IC90.
Field format: number, assumed µM, no unit text.

>  <molecule>
O[C@@H]1Cc2cc(Cl)ccc2N[C@H](c2c(F)cccc2Cl)C1 (relative stereo)

>  <IC90 / µM>
78.5

$$$$
>  <molecule>
Fc1ccccc1[C@@H]1C[C@@H]2Cc3cc(Cl)ccc3N1O2 (relative stereo)

>  <IC90 / µM>
67.3

$$$$
>  <molecule>
O[C@@H]1Cc2cc(OC(F)(F)F)ccc2N[C@H](c2ccccc2)C1 (relative stereo)

>  <IC90 / µM>
43.2

$$$$

Quick one: give measured IC90 for Fc1ccc2c(c1)C[C@H]1C[C@@H](c3ccc(Cl)cc3)N2O1 (relative stereo)
41.8

* * *

Items are presented alongside their recorded Selectivity Index.
experiment: Selectivity index, CC50 for african green monkey Vero cells to IC50 for Trypanosoma cruzi 320I01 amastigotes; format: functional

>  <compound>
Clc1ccc2c(c1)C[C@H]1C[C@@H](c3c(Cl)cccc3Cl)N2O1 (relative stereo)

>  <measure.name>
Selectivity Index

>  <value.measured>
>0.58

$$$$
>  <compound>
O[C@@H]1Cc2cc(Cl)ccc2N[C@H](c2c(Cl)cccc2Cl)C1 (relative stereo)

>  <measure.name>
Selectivity Index

>  <value.measured>
>1

$$$$
>  <compound>
Cc1ccc([C@@H]2C[C@H](O)Cc3cc(C)ccc3N2)cc1 (relative stereo)

>  <measure.name>
Selectivity Index

>  <value.measured>
>6

$$$$

Consider now this further compound.
Quick one: give measured Selectivity Index for Clc1ccccc1[C@@H]1C[C@@H]2Cc3ccccc3N1O2 (relative stereo)
>1

* * *

Items are presented alongside their recorded CC50 at 72 h.
assay: Cytotoxicity against african green monkey Vero cells after 72 hrs by MTT assay; format: cell-based; conditions: chlorocebus sabaeus

Reference set, count: 4
>  <compound>
COc1cccc([C@@H]2C[C@@H]3Cc4ccccc4N2O3)c1 (relative stereo)

>  <CC50 at 72 h>
> 300 µM

$$$$
>  <compound>
Clc1ccc([C@@H]2C[C@@H]3Cc4cc(Cl)ccc4N2O3)cc1 (relative stereo)

>  <CC50 at 72 h>
> 300 µM

$$$$
>  <compound>
Cc1ccc2c(c1)C[C@H]1C[C@@H](c3ccccc3Cl)N2O1 (relative stereo)

>  <CC50 at 72 h>
50.2 µM

$$$$
>  <compound>
Fc1ccccc1[C@@H]1C[C@@H]2Cc3cc(Cl)ccc3N1O2 (relative stereo)

>  <CC50 at 72 h>
123 µM

$$$$

Quick one: give measured CC50 at 72 h for O[C@@H]1Cc2ccccc2N[C@H](c2ccccc2F)C1 (relative stereo)
> 300 µM

Quick one: give measured CC50 at 72 h for Cc1ccc([C@@H]2C[C@H](O)Cc3cc(C)ccc3N2)cc1 (relative stereo)
> 300 µM

Quick one: give measured CC50 at 72 h for O[C@@H]1Cc2ccccc2N[C@H](c2c(Cl)cccc2Cl)C1 (relative stereo)
> 300 µM

Quick one: give measured CC50 at 72 h for O[C@@H]1Cc2cc(Cl)ccc2N[C@H](c2c(F)cccc2Cl)C1 (relative stereo)
92 µM

Quick one: give measured CC50 at 72 h for O[C@@H]1Cc2cc(Cl)ccc2N[C@H](c2c(Cl)cccc2Cl)C1 (relative stereo)
49.9 µM

Quick one: give measured CC50 at 72 h for Fc1cccc(Cl)c1[C@@H]1C[C@@H]2Cc3cc(Cl)ccc3N1O2 (relative stereo)
> 300 µM

Quick one: give measured CC50 at 72 h for O[C@@H]1Cc2ccccc2N[C@H](c2ccc(F)cc2)C1 (relative stereo)
> 300 µM

Quick one: give measured CC50 at 72 h for Cc1cccc([C@@H]2C[C@H](O)Cc3ccccc3N2)c1 (relative stereo)
> 300 µM

* * *

Items are presented alongside their recorded Selectivity Index.
experiment: Selectivity index, CC50 for african green monkey Vero cells to IC50 for Trypanosoma cruzi 320I01 epimastigote; format: functional

>  <compound>
Cc1cccc([C@@H]2C[C@H](O)Cc3ccccc3N2)c1 (relative stereo)

>  <Selectivity Index>
>19

$$$$
>  <compound>
O[C@@H]1Cc2cc(F)ccc2N[C@H](c2ccccc2)C1 (relative stereo)

>  <Selectivity Index>
>24

$$$$
>  <compound>
Cc1cccc([C@@H]2C[C@@H]3Cc4ccccc4N2O3)c1 (relative stereo)

>  <Selectivity Index>
>4

$$$$
>  <compound>
O[C@@H]1Cc2ccccc2N[C@H](c2ccc(F)cc2)C1 (relative stereo)

>  <Selectivity Index>
>11

$$$$

Consider now this further compound.
Quick one: give measured Selectivity Index for O[C@@H]1Cc2ccccc2N[C@H](c2ccccc2Cl)C1 (relative stereo)
>6

* * *

Items are presented alongside their recorded Selectivity Index.
assay: Selectivity index, CC50 for african green monkey Vero cells to IC50 for Trypanosoma cruzi 320I01 epimastigote; format: functional

Reference set, count: 2
>  <compound>
COc1cccc([C@@H]2C[C@@H]3Cc4ccccc4N2O3)c1 (relative stereo)

>  <Selectivity Index>
>3

$$$$
>  <compound>
Fc1ccc([C@@H]2C[C@@H]3Cc4ccccc4N2O3)cc1 (relative stereo)

>  <Selectivity Index>
>3

$$$$

Quick one: give measured Selectivity Index for O[C@@H]1Cc2ccccc2N[C@H](c2ccccc2F)C1 (relative stereo)
>4

Quick one: give measured Selectivity Index for c1ccc([C@@H]2C[C@@H]3Cc4ccccc4N2O3)cc1 (relative stereo)
>3
